biological target: T1, Bio-P19 member A2E-19 (chain 2 carries a C-terminal BirA substrate peptide (BSP), enzymatically biotinylated; the BSP letters are not given in the patent and are left out); assay: phage ELISA, streptavidin plate, anti-M13-HRP
T1 construct: also called biotinylated control peptide A2E-19/HLA-A*02:01 monomer
T1 sequence (beta, as listed by the source): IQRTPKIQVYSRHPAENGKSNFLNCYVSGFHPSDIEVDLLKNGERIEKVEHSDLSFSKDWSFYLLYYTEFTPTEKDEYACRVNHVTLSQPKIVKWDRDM

# binder, binding result
data = [
    ("PSA146/HLA-A*02:01-specific scFv phage clone #6 (scFv, V domains shown) VH: EVQLVQSGAEVKKPGASVKVSCKASGYTFTGYYIHWVRQAPGQGLEWMGGFDPEDGETIYAQKFQDRVTMTADTSTDTAYMELSSLRSEDTAVYYCARYGFDYWGQGTLVTVSS VL: QAVVTQEPSLTVSPGGTVTLTCASSTGAVTSGYYPNWFQLKPGQAPRALIYTTGKKHSWAPARFSGSLLGGKAALTLSGVQPEDEAEYYCLLYSGGVWVFGGGTKLTVLG", "no binding"),
    ("PSA146/HLA-A*02:01-specific scFv phage clone #18 (scFv, V domains shown) VH: QVQLVQSGAEVKKPGESLKISCKGSGYSFTSYWIGWVRQMPGKGLEWMGIIYPGDSDTRYSPSFQGQVTISADKSISTAYLQWSSLKASDTAMYYCARWGSRGFLDAFDIWGQGTMVTVSS VL: QSVVTQPPSVSAAPGQRVTISCSGSSSNIGNNYVSWYQQLPGAAPRLLIYDNDKRPSGIPDRFSGSKSGTSATLGITGLQTGDEADYYCGTWDSSLSSGVFGGGTKLTVLG", "no binding"),
]
